- System: sorghum (SORVU)
- test-summary: Test 28 greenhouse, postemergence
- Type: in vivo, Sorghum vulgare
- measurement-setup: 26 DAA, Isoxadifen-ethyl 1024 g a.i./ha
result-type: SORVU Obs (%)

1) CCOC(=O)C1=NOC(c2ccccc2)(c2ccccc2)C1; 0

---

- Tested on: barley (HORVX)
- test-summary: Test 30 growth chamber, postemergence
- Assay type: in vivo, Hordeum vulgare
- measurement-setup: 17 DAA, Cpd 2 4 g a.i./ha
result-type: HORVX Obs

1) COC(=O)c1nc(C2CC2)nc(N)c1Cl [Compound 2]; 30%

---

- Test system: flint corn (ZEAMI)
- test-summary: Test 12 field trial, preemergence
- Assay type: in vivo, Zea mays L. ssp. indurata
- measurement-setup: 61 DAA; Cpd 2 or Cpd 1 62 g a.i./ha, Diuron 2000 g a.i./ha
result-type: ZEAMI Obs

1) Nc1nc(C2CC2)nc(C(=O)O)c1Cl [Compound 1]; 15%
2) COC(=O)c1nc(C2CC2)nc(N)c1Cl [Compound 2]; 15%
3) CN(C)C(=O)Nc1ccc(Cl)c(Cl)c1 [Diuron]; 25%

---

- System: corn (ZEAMD)
- test-summary: Test 31 field trial, corn hybrids at V4 growth stage
- Format: in vivo, Zea mays ssp. indentata
- measurement-setup: postemergence; corn hybrid 34N43; 14 DAA; Cpd 2 60 g a.i./ha
result-type: 34N43 Obs

1) COC(=O)c1nc(C2CC2)nc(N)c1Cl; 20%

---

- System: rice (ORYSA)
- test-summary: Test 32 greenhouse, simulated flooded rice culture
- Format: in vivo, Oryza sativa
- measurement-setup: postemergence to flood; 21 DAA; Isoxadifen-ethyl 1000 g a.i./ha
result-type: ORYSA Obs (%)

1. CCOC(=O)C1=NOC(c2ccccc2)(c2ccccc2)C1 [Isoxadifen-ethyl]; 5

---

- System: wheat (TRZAW)
- test-summary: Test 28 greenhouse, post- and preemergence
- Type: in vivo, Triticum aestivum
- measurement-setup: preemergence; 26 DAA; Isoxadifen-ethyl 256 g a.i./ha
result-type: TRZAW Obs (%)

1) CCOC(=O)C1=NOC(c2ccccc2)(c2ccccc2)C1 [Isoxadifen-ethyl]; 0

---

- System: wheat (TRZAW)
- test-summary: Test 30 growth chamber, postemergence
- Format: in vivo, Triticum aestivum
- measurement-setup: 17 DAA, Cpd 2 1 g a.i./ha
result-type: TRZAW Obs

1. COC(=O)c1nc(C2CC2)nc(N)c1Cl; 20%

---

- Tested on: rice (ORYSA)
- test-summary: Test 32 greenhouse, simulated flooded rice culture
- Type: in vivo, Oryza sativa
- measurement-setup: postemergence to flood; 21 DAA; Isoxadifen-ethyl 250 g a.i./ha
result-type: ORYSA Obs (%)

1) CCOC(=O)C1=NOC(c2ccccc2)(c2ccccc2)C1; 7

---

- System: wheat (TRZAW)
- test-summary: Test 30 growth chamber, postemergence
- Format: in vivo, Triticum aestivum
- measurement-setup: 18 DAA, Cpd 1 16 g a.i./ha
result-type: TRZAW Obs (%)

1) Nc1nc(C2CC2)nc(C(=O)O)c1Cl; 45

---

- Test system: wheat (TRZAW)
- test-summary: Test 30 growth chamber, postemergence
- Type: in vivo, Triticum aestivum
- measurement-setup: 17 DAA, Glycerol 7100 g a.i./ha
result-type: TRZAW Obs (%)

1) OCC(O)CO; 0
